Known cytotoxicity log GI50 of a selection of compounds
system: MOLT-4; assay: in vitro leukemia cell growth inhibition (NCI screen)
quantityMeasured: cytotoxicity log GI50 (M)

1. CC(=O)NC1=C(NC(C)(C)C)C(=O)c2ccccc2C1=O : -5.19
2. Cc1nc2c(n1CCCl)C(=O)c1ccccc1C2=O : -4.89
3. CCNC1=C(NC(=O)c2ccc(OC)cc2)C(=O)c2ccccc2C1=O : -4.44
4. CCn1c(CCl)nc2c1C(=O)c1ccccc1C2=O : -6.45
5. O=C(NC1=C(Cl)C(=O)c2ccccc2C1=O)c1ccccc1 : -4.70

----------
test system: M19-MEL; assay: in vitro melanoma cell growth inhibition (NCI screen)
quantityMeasured: cytotoxicity log GI50 (M)

1. CCCC(C)NC1=C(NC(C)=O)C(=O)c2ccccc2C1=O (stereo not shown) [Compound 33] : -4.20
2. CC(=O)NC1=C(NCC(C)(C)C)C(=O)c2ccccc2C1=O [Compound 38] : -4.68
3. CC(=O)NC1=C(NC(C)(C)C)C(=O)c2ccccc2C1=O [Compound 32] : -4.81
4. CCC(C)(C)NC1=C(NC(C)=O)C(=O)c2ccccc2C1=O [Compound 36] : -4.88
5. CCC(CC)n1c(C)nc2c1C(=O)c1ccccc1C2=O [Compound 10] : -4.83
6. CCC(C)(C)n1c(C)nc2c1C(=O)c1ccccc1C2=O [Compound 12] : -4.80
7. Cc1nc2c(n1CCN(C)C)C(=O)c1ccccc1C2=O [Compound 15] : -5.69
8. CCCC(C)n1c(C)nc2c1C(=O)c1ccccc1C2=O (stereo not shown) [Compound 9] : -4.90
9. CCC(C)n1c(C)nc2c1C(=O)c1ccccc1C2=O (stereo not shown) [Compound 6] : -4.74
10. CC(=O)NC1=C(NCCN(C)C)C(=O)c2ccccc2C1=O [Compound 39] : -5.12

----------
tested on: SR; assay: in vitro leukemia cell growth inhibition (NCI screen)
quantityMeasured: cytotoxicity log GI50 (M)

1) CCC(C)(C)NC1=C(NC(C)=O)C(=O)c2ccccc2C1=O : -4.50
2) Cc1nc2c(n1Cc1ccc(F)cc1)C(=O)c1ccccc1C2=O : -5.37
3) Cc1nc2c(n1C(C)(C)C)C(=O)c1ccccc1C2=O : -4.35
4) CCC(CC)n1c(C)nc2c1C(=O)c1ccccc1C2=O : -4.59
5) Cc1nc2c(n1CCO)C(=O)c1ccccc1C2=O : -4.58
6) Cc1nc2c(n1CCC(C)C)C(=O)c1ccccc1C2=O : -5.33
7) Cc1nc2c(n1Cc1ccc(Cl)cc1)C(=O)c1ccccc1C2=O : -5.88
8) COc1cc(OC)cc(C(=O)NC2=C(Cl)C(=O)c3ccccc3C2=O)c1 : -6.33
9) Cc1nc2c(n1CCN(C)C)C(=O)c1ccccc1C2=O : -4.93
10) CCC(C)(C)n1c(C)nc2c1C(=O)c1ccccc1C2=O : -5.03
11) O=C(Cc1ccccc1F)NC1=C(Cl)C(=O)c2ccccc2C1=O : -6.32
12) CCC(c1ccc(F)cc1)c1nc2c(n1CC)C(=O)c1ccccc1C2=O (stereo not drawn) : -4.73
13) COc1ccc(Cn2c(C)nc3c2C(=O)c2ccccc2C3=O)cc1 : -5.84
14) CCC(C)Cn1c(C)nc2c1C(=O)c1ccccc1C2=O (stereo not drawn) : -5.55
15) COC(=O)CCC(=O)NC1=C(Nc2ccc(OC)cc2)C(=O)c2ccccc2C1=O : -5.16
16) Cc1ccc(Cn2c(C)nc3c2C(=O)c2ccccc2C3=O)cc1 : -6.48
17) CCn1c(CCl)nc2c1C(=O)c1ccccc1C2=O : -6.40
18) O=C(Cc1ccc(F)cc1)NC1=C(Cl)C(=O)c2ccccc2C1=O : -6.88
